# measurement_target: human CCR8 (human, UniProt P51685 1-355)
# protocol_summary: cell-based or functional assay
Listing of entries alongside the reported residual hCCL1 (100 nM) Gi2 response, protocol #3, mAb 0.5 µg/mL.
Answer in %, number only, no unit symbol.

anti-CCR8 mAb 1-23 (antibody, human IgG1, kappa, V domains shown, Humanized mAb, human IgG1 / kappa) VH: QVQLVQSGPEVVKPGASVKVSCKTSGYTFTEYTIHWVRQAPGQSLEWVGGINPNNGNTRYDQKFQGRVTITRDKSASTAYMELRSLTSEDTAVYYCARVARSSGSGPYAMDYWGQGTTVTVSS VL: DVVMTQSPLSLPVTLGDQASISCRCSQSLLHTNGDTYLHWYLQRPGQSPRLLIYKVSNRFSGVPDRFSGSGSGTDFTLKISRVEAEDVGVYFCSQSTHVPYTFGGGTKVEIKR :: 60

// residual hCCL1 (100 nM) Gi2 response, protocol #3, mAb 0.5 µg/mL lookup, key: anti-CCR8 mAb 1-14 (antibody, V domains shown, Murine hybridoma mAb) VH: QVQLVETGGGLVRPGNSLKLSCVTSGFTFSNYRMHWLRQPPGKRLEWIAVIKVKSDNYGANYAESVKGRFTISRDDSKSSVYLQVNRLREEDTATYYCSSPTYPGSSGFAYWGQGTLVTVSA VL: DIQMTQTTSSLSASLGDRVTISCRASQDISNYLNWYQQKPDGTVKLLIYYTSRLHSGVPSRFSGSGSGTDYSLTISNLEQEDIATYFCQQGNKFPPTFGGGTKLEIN
68
